Experiment: Determination of moisture contents with KF moisture meter at different time points
Assay type: physicochemical
Conditions: temperature 23° C., humidity 92.5%, 30 min
measured.metric: moisture content (%)

Suppose we examine the molecule CC[C@@H](O)CC(=O)O [R-3-hydroxypentanoic acid] ; what moisture content (%) value has been reported?
0.94%

Suppose we examine the molecule CC(O)CC(=O)O.CC(O)CC(=O)[O-].CC(O)CC(=O)[O-].[Mg+2] (stereo not shown) ; what moisture content (%) value has been reported?
0.56%

Suppose we examine the molecule C[C@H](O)CC(=O)[O-].C[C@H](O)CC(=O)[O-].[Mg+2] [Magnesium S-3-hydroxybutyrate, magnesium S-3-hydroxybutyrate] ; what moisture content (%) value has been reported?
0.88%

Suppose we examine the molecule C[C@@H](O)CC(=O)[O-].[K+] [Potassium R-3-hydroxybutyrate, potassium R-3-hydroxybutyrate] ; what moisture content (%) value has been reported?
1.04%
